conditions: human, HCAVSMCs, 10 μM, intracellular half-life (t1/2), fluorescence 0 and 5 days after treatment removal

| SUBSTANCE | half-life |
| --- | --- |
| H-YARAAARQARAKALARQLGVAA-OH [MMI-0100] | 96 h |

Cited source for all entries: patent US10087225B2
